protocol: Evaluation of liquid crystallinity (hot stage, polarization microscope)
Assay type: physicochemical
Parameters: key: A case of having liquid crystallinity was evaluated as A; a case of having no liquid crystallinity was evaluated as B
measurement conditions: heated on a hot stage, observed with a polarization microscope
observed property: Liquid crystallinity

>>> result("C=CC(=O)OCCSc1ccc(C#Cc2ccc(-c3ccc(C#Cc4ccc(SCCOC(=O)C=C)cc4)cc3C)c(C)c2)cc1")
"A"
>>> result("C=CC(=O)OCCCCOc1ccc(C#Cc2ccc(-c3ccc(C#Cc4ccc(OCCCCOC(=O)C=C)cc4)cc3C)c(C)c2)cc1")
"A"
>>> result("C=CC(=O)OCCc1ccc(C#Cc2cnc(-c3ncc(C#Cc4ccc(CCOC(=O)C=C)cc4)cc3C)c(C)c2)cc1")
"A"
>>> result("C=CC(=O)OCCc1ccc(C#Cc2ccc(-c3ccc(C#Cc4ccc(CCOC(=O)C=C)cc4)cc3C)c(C)c2)cc1")
"A"
